target.or.system: TTBK1 (Homo sapiens, UniProt Q5TCY1)
Construct: purchased Eurofins
Sequence (Q5TCY1 whole entry): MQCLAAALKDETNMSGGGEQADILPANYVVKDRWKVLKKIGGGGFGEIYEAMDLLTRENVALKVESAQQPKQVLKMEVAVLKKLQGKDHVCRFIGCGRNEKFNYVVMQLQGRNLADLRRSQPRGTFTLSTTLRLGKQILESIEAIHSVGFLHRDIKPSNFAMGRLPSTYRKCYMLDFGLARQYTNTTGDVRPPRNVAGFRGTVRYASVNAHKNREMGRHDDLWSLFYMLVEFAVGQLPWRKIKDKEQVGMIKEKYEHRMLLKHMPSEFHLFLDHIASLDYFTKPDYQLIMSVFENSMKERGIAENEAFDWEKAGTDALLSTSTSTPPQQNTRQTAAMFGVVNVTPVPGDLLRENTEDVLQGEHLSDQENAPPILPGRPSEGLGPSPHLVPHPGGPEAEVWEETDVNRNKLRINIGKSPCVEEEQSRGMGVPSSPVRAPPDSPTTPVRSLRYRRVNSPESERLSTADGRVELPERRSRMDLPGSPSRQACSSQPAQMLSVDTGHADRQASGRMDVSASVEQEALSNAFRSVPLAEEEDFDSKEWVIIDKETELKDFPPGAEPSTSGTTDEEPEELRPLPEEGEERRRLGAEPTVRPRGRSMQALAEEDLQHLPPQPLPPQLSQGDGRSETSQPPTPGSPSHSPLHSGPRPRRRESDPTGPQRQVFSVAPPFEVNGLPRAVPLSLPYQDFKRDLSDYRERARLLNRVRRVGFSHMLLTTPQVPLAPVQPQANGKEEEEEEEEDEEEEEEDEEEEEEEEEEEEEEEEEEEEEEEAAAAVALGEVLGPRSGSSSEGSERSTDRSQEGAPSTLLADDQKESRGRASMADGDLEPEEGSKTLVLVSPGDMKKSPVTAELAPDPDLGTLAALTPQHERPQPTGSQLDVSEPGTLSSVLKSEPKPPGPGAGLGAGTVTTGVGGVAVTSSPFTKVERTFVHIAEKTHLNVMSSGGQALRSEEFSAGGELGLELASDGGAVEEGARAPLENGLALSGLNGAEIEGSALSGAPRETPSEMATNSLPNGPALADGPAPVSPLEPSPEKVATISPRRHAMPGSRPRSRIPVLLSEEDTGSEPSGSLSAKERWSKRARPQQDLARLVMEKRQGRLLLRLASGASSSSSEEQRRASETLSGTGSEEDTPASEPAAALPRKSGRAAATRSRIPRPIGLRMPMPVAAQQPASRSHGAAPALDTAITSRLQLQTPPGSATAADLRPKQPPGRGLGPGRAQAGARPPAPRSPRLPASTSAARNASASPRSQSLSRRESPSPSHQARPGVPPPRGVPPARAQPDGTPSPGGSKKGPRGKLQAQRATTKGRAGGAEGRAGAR
measurement.protocol: Eurofins enzymatic radiometric kinase assay
Format: biochemical
Text: The column labeled “# < 10 PoC in enzyme panel” in Table 1 reports the number of kinases in this 17-member panel inhibited > 90% by each analog. Details about the substrate used, protein constructs, controls, and assay protocol for these kinase assays are available at the Eurofins website: https://www.eurofinsdiscoveryservices.com. […]
value.kind: IC50

Please respond with reported IC50 (system TTBK1 (Homo sapiens, UniProt Q5TCY1)) for CC(C)(O)C#Cc1ccc2[nH]c3c(c2c1)-c1nc(N)ncc1CC3 [Compound 1] . > 1 µM

====

target.or.system: NLuc-TTBK2 (Homo sapiens)
Construct: host or cells: HEK293
Sequence (Q6IQ55 whole entry): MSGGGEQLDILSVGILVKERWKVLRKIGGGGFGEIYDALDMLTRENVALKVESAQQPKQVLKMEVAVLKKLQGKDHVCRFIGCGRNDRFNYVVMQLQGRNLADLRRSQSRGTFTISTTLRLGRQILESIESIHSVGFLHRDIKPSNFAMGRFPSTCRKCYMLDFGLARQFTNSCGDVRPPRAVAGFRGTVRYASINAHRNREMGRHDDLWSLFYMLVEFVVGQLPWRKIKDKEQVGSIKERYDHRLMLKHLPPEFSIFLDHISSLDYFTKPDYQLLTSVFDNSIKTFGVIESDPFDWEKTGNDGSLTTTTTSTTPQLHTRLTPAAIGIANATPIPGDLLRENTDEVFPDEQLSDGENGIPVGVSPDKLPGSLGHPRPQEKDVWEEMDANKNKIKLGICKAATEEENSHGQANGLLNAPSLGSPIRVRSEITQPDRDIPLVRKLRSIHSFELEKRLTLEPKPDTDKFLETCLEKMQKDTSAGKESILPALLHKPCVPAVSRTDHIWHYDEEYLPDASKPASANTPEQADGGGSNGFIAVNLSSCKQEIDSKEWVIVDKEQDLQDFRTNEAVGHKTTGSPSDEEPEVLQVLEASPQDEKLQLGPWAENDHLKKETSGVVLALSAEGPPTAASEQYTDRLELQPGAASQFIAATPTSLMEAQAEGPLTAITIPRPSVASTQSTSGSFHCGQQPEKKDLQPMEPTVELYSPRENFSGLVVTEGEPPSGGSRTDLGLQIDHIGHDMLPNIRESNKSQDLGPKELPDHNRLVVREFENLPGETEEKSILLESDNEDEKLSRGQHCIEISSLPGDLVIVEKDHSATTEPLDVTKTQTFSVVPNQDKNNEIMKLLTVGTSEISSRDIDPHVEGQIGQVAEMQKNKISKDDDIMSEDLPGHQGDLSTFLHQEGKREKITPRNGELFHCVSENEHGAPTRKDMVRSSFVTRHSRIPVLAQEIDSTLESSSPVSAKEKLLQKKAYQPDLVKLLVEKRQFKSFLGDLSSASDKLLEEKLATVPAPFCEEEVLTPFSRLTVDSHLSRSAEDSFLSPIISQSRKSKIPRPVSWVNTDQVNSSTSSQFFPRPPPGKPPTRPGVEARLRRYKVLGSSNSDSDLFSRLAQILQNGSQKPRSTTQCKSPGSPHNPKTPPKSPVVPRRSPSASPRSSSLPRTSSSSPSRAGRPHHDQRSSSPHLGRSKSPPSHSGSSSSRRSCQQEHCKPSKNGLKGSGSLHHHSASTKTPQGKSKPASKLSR
measurement.protocol: TTBK2 NanoBRET cellular target engagement assay in HEK293 cells
Format: cell-based
condition.summary: intact HEK293 cells, 2 μM tracer 29; read-out: TTBK2 intact cell NB IC50
Assign pIC50 to each entry below.
# reply with the number alone; pIC50 is -log10 of concentration in mol/L

Annotate the compound CC(C)(O)C#Cc1ccc2[nH]c3c(c2c1)-c1nc(N)ncc1CC3 with its measured pIC50. 4.80

Annotate the compound CC(C)(O)C#Cc1ccc2[nH]cc(-c3ccnc(N)n3)c2c1 with its measured pIC50. 4.93

====

target.or.system: PAK6 (Homo sapiens, UniProt Q9NQU5)
Construct: purchased Eurofins (radiometric) / Eurofins DiscoverX scanMAX / Reaction Biology / SignalChem
Sequence (Q9NQU5 whole entry): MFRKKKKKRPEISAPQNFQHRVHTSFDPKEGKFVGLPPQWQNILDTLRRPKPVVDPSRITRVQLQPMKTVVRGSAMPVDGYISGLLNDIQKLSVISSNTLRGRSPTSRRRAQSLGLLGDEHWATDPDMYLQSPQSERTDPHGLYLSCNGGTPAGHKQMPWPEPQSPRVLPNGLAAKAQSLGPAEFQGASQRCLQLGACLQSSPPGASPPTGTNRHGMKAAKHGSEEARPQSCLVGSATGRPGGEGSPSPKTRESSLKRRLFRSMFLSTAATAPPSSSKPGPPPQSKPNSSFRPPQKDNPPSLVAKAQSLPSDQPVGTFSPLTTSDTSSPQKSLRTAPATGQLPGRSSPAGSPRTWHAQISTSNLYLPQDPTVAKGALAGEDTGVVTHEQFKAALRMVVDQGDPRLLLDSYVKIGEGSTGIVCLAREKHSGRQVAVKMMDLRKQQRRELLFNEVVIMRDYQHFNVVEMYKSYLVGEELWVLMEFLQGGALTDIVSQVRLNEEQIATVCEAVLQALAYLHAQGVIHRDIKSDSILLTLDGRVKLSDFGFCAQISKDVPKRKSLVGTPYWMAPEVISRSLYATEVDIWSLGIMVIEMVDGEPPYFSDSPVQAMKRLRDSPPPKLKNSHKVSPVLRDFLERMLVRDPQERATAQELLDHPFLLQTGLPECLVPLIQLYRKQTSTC
measurement.protocol: Eurofins enzymatic radiometric kinase assay
Assay type: biochemical
condition.summary: ATP at Km, duplicate
value.kind: PAK6 PoC at 1 μM (PoC)
Please give a number only; it is taken to be in PoC.

Annotate the compound COC(C)(C)C#Cc1ccc2[nH]c3c(c2c1)-c1nc(N)ncc1CCC3 with its measured PAK6 PoC at 1 μM. 92

Annotate the compound CC(C)(O)C#Cc1ccc2[nH]c3c(c2c1)-c1nc(N)ncc1CCCC3 with its measured PAK6 PoC at 1 μM. 77

Annotate the compound CC(C)(O)C#Cc1ccc2[nH]cc(-c3ccnc(N)n3)c2c1 with its measured PAK6 PoC at 1 μM. 40

Annotate the compound CC(C)(O)C#Cc1ccc2[nH]c3c(c2c1)-c1nc(N)ncc1CC3 with its measured PAK6 PoC at 1 μM. 51

Annotate the compound CC(C)(O)C#Cc1ccc2[nH]c3c(c2c1)-c1nc(N)ncc1CCC3 [AMG28, reference compound] with its measured PAK6 PoC at 1 μM. 6

====

target.or.system: TAOK1 (Homo sapiens)
Construct: purchased Eurofins
Sequence (Q7L7X3 whole entry): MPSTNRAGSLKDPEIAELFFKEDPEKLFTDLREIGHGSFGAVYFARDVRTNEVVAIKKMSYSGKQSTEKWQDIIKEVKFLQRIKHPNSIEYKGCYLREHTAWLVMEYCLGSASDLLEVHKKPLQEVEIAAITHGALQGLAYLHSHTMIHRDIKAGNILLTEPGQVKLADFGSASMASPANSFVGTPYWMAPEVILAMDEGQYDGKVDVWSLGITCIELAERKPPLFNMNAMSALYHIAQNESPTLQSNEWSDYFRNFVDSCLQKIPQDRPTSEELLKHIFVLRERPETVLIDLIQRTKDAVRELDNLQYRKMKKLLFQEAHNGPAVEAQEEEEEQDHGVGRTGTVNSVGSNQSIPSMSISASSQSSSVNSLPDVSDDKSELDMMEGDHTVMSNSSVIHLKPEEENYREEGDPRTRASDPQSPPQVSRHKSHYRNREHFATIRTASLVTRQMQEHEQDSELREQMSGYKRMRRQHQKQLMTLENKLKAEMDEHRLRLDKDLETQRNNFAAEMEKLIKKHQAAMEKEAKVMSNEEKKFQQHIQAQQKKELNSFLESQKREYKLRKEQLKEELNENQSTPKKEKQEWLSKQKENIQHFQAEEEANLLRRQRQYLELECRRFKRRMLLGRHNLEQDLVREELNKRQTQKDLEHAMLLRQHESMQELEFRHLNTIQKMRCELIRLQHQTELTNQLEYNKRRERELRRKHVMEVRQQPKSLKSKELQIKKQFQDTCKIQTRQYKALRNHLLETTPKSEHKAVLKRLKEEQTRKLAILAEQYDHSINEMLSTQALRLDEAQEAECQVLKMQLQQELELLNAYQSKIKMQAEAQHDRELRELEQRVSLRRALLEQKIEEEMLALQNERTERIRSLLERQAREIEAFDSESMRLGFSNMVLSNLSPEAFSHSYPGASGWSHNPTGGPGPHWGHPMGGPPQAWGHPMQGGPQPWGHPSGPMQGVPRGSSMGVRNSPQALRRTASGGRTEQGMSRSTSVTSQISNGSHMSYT
measurement.protocol: Eurofins enzymatic radiometric kinase assay
Format: biochemical
condition.summary: ATP at Km, duplicate
value.kind: TAOK1 PoC at 1 μM (PoC)
Please give a number only; it is taken to be in PoC.

Annotate the molecule CC(C)(O)C#Cc1ccc2[nH]c3c(c2c1)-c1nc(N)ncc1CC3 with its measured TAOK1 PoC at 1 μM. 5

Annotate the molecule CC(C)(O)C#Cc1ccc2[nH]c3c(c2c1)-c1nc(N)ncc1CCC3 [AMG28, reference compound] with its measured TAOK1 PoC at 1 μM. 2

Annotate the molecule CC(C)(O)C#Cc1ccc2[nH]cc(-c3ccnc(N)n3)c2c1 with its measured TAOK1 PoC at 1 μM. 7

Annotate the molecule CC(C)(O)C#Cc1ccc2[nH]c3c(c2c1)-c1nc(N)ncc1CCCC3 with its measured TAOK1 PoC at 1 μM. 65

Annotate the molecule COC(C)(C)C#Cc1ccc2[nH]c3c(c2c1)-c1nc(N)ncc1CCC3 with its measured TAOK1 PoC at 1 μM. 73
